Cited source for all entries: paper PMC5706701

# assay-target: Human IP6K1 (Homo sapiens)
# Construct: GST (N, cleaved yes); made in house; host or cells: C43 E. coli, pGEX-6P-2
# Sequence (Q92551 whole entry): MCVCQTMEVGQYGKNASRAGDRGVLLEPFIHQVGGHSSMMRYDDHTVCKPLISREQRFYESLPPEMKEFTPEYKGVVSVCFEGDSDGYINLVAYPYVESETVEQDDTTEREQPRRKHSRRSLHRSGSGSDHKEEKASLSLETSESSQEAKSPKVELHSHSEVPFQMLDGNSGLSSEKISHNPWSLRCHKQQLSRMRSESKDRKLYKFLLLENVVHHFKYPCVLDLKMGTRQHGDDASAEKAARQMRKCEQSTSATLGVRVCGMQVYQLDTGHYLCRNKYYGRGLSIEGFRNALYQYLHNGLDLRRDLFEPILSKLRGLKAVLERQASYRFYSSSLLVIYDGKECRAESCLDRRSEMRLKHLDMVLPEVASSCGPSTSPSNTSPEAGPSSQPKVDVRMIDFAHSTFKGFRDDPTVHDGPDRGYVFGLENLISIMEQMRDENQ
# protocol-notes: IP6K1 high-throughput screen of the Sigma LOPAC (ADP-Glo Max, single point);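 also: final compound concentration 10µM in 5% DMSO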
# Assay type: biochemical
# assay-context: Sigma LOPAC single-point screen, ADP-Glo Max raw signal per well
Where a name gives a salt, the structure may show the parent alone.
endpoint-label: Raw Signal
Write the number on its own, no unit after it.

Solved cases below.
compound	Raw Signal
S=C=Nc1cccc(C2(N3CCCCC3)CCCCC2)c1 [Metaphit methanesulfonate]	56894
Cc1cn([C@H]2C[C@H](N=[N+]=[N-])[C@@H](CO)O2)c(=O)[nH]c1=O	61635
CN(C)CC/C=C1/c2ccccc2Sc2ccc(Cl)cc21 [Chlorprothixene hydrochloride]	61517
Nc1nc(O)c2ncn(COC(CO)CO)c2n1	57228
CN[C@H](CC(C)C)C(=O)N[C@H]1C(=O)N[C@@H](CC(N)=O)C(=O)N[C@H]2C(=O)N[C@H]3C(=O)N[C@H](C(=O)N[C@H](C(=O)O)c4cc(O)cc(O)c4-c4cc3ccc4O)[C@H](O)c3ccc(c(Cl)c3)Oc3cc2cc(c3O[C@@H]2O[C@H](CO)[C@@H](O)[C@H](O)[C@H]2O[C@H]2C[C@](C)(N)[C@H](O)[C@H](C)O2)Oc2ccc(cc2Cl)[C@H]1O.Cl	61643

The compound listed as CC(C)[N+](C)(CCOC(=O)C1c2ccccc2Oc2ccccc21)C(C)C [Propantheline bromide] shows Raw Signal equal to 58434

Value of measured Raw Signal for the entry CC1(C(=O)O)C2CCC(O2)C1(C)C(=O)O (centres unmarked) : 61779

// recorded Raw Signal for CCC1(c2ccccc2)C(=O)NCNC1=O : 58828
